Hello, the source for this data is ChEMBL document CHEMBL4359871, in case you need it.

Consider the following compounds and their measured Activity readings.
Tested on: HaCaT
testSummary: Induction of apoptosis in human HaCaT cells assessed as early apoptotic cells incubated for 48 hrs by annexin V FITC and propidium iodide staining based flow cytometry (reference value: 0.02 %)
Assay type: cell-based
Entry rule: numbers only, all in %.

# example entries with known answers
>  <compound>
COc1ccccc1C(C(=O)NC1CCCCC1)N(C(=O)/C=C/C(=O)c1ccc(C)cc1)C1CCCCC1 (stereo unspecified)

>  <recordedResult>
0.07

$$$$
>  <compound>
COc1ccc(C(C(=O)NC(C)(C)C)N(C(=O)/C=C/C(=O)c2ccc(C)cc2)C(C)C)cc1 (stereo unspecified)

>  <recordedResult>
0.22

$$$$
>  <compound>
CN(CCOC(=O)/C=C/C(=O)c1ccc(F)cc1)C(C(=O)NC(C)(C)C)c1ccc(F)cc1 (stereo unspecified)

>  <recordedResult>
0.03

$$$$
>  <compound>
COc1cc(C(C(=O)NC(C)(C)C)N(CCC(C)C)C(=O)/C=C/C(=O)c2ccc(F)cc2)cc(OC)c1OC (stereo unspecified)

>  <recordedResult>
0.14

$$$$
>  <compound>
Cc1ccc(C(=O)/C=C/C(=O)N(C2CC2)C(C(=O)NCc2ccccc2)c2ncc(C)cn2)cc1 (stereo unspecified)

>  <recordedResult>
0.07

$$$$

// switching to the query compound
Short answer on HaCaT for CC(C)(C)NC(=O)C(c1ccc(F)cc1)N(C(=O)/C=C/C(=O)c1ccc(F)cc1)C1CC1 (stereo unspecified) , Activity: 0.07
